target: Human recombinant enteropeptidase (Homo sapiens, UniProt P98073); construct: purchased ITSI-Biosciences LLC #REN-260; assay: Human enteropeptidase inhibitory activity (Test Example 1); assay type: biochemical; details: 3.3 μM test compound; inhibition rate from fluorescence intensity at 2 hours after the start of the reaction; read-out: 3.3 μM Inhibition
Sequence (P98073 whole entry): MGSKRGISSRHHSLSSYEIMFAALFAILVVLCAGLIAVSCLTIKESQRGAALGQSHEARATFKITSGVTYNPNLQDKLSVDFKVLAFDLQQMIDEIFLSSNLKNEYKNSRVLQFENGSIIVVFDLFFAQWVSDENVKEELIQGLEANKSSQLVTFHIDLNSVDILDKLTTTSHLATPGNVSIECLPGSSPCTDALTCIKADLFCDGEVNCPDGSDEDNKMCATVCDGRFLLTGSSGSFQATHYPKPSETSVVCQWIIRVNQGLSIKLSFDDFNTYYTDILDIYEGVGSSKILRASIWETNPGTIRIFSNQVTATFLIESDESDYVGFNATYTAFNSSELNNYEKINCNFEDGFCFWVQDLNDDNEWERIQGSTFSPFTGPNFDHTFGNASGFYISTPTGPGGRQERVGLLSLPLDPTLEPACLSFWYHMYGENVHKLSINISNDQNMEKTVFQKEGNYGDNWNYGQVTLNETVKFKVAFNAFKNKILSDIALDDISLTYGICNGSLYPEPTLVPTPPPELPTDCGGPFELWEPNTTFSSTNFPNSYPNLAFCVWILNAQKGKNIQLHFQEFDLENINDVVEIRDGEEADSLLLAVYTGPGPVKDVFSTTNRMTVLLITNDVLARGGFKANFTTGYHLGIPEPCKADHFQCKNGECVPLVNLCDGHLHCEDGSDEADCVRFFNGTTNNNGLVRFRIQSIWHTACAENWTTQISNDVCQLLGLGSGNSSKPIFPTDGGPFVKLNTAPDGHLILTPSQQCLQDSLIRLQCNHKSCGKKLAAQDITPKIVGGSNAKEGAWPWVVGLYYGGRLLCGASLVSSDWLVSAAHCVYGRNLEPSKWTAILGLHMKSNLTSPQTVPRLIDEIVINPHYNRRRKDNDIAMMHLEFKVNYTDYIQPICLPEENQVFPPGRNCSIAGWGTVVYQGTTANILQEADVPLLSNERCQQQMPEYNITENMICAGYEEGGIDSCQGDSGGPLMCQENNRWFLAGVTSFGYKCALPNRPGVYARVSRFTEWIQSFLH
Structures can show the parent of a compound that is named as a salt.
readout type: inhibition at 3.3 µM (%)

# compound, inhibition at 3.3 µM, %
rows = [
    ("COC(=O)CN(C(=O)c1cccc2c1OCCCc1cc(NC(=N)N)ccc1C(=O)O2)[C@@H](CC(=O)O)C(=O)O [Example 139]", 100),
    ("COCCN(C(=O)c1cccc2c1OCCCc1cc(NC(=N)N)ccc1C(=O)O2)[C@@H](CC(=O)O)C(=O)O [Example 109]", 100),
    ("N=C(N)Nc1ccc2c(c1)CCCCc1c(cccc1C(=O)O)OC2=O [Example 34]", 75),
    ("N=C(N)Nc1ccc2c(c1)CCCOc1c(CCC(=O)N[C@@H](Cc3ccc(O)cc3)C(=O)O)cccc1OC2=O [Example 95]", 101),
    ("N=C(N)Nc1ccc2c(c1)CCCOc1c(cccc1C(=O)N(CC(=O)O)[C@@H](Cc1ccc(OCCNCC(=O)O)cc1)C(=O)O)OC2=O [Example 121]", 101),
    ("N=C(N)c1ccc2c(c1)CCc1cc(C(=O)N[C@@H](CC(=O)O)C(=O)O)ccc1C(=O)O2 [Example 63]", 93),
    ("N=C(N)c1ccc2c(c1)CCc1c(CCC(=O)N[C@@H](CC(=O)O)C(=O)O)cccc1C(=O)O2 [Example 61, trifluoroacetate]", 72),
    ("N=C(N)Nc1ccc2c(c1)CCCOc1c(cccc1C(=O)N(CC(=O)O)Cc1cccc(CN(CC(=O)O)CC(=O)O)c1)OC2=O [Example 116]", 99),
    ("N=C(N)Nc1ccc2c(c1)CCCCc1c(cc3c(c1C(=O)NCCS(=O)(=O)O)CCO3)OC2=O [Example 36]", 94),
    ("COc1ccc(C[C@H](NC(=O)c2c(CCC(=O)O)ccc3c2OCCCc2cc(NC(=N)N)ccc2C(=O)O3)C(=O)O)cc1 [Example 112]", 99),
    ("N=C(N)Nc1ccc2c(c1)CCCOc1cc(C(=O)N[C@@H](CC(=O)O)C(=O)O)ccc1OC2=O [Example 81]", 101),
    ("N=C(N)Nc1ccc2c(c1)CCCOc1c(cccc1C(=O)NCC(=O)N[C@@H](CC(=O)O)C(=O)O)OC2=O [Example 100]", 101),
    ("N=C(N)Nc1ccc2c(c1)CCCOc1c(ccc(CCC(=O)O)c1C(=O)N[C@@H](CC(=O)O)C(=O)O)OC2=O [Example 110]", 100),
    ("N=C(N)Nc1ccc2c(c1)CCCOc1c(cccc1C(=O)N(CCN(CC(=O)O)CC(=O)O)CC(=O)O)OC2=O [Example 120]", 101),
]
